Test system: A. baumannii ATCC 17978
Assay type: cell-based, Acinetobacter baumannii
test_settings: rifampicin in combination with the UTBLP
Non-standard residues stand in square brackets, D forms with d. Residues, ends and D or L forms follow the SMILES beside them. *: point of attachment. Lys(Me3) = C[N+](C)(C)CCCC[C@H](N)C(=O)O; Lys(Me2) = CN(C)CCCC[C@H](N)C(=O)O; Lys(Me) = CNCCCC[C@H](N)C(=O)O; Octanoyl = CCCCCCCC(=O)*
The following compounds are shown together with reported MICantibiotic [MICcombo] values.

compound	MICantibiotic [MICcombo] (µg/mL)
CCCCCCCC(=O)NCCCC[C@H](NC(=O)CCCCCCC)C(=O)N[C@@H](CCCC[N+](C)(C)C)C(=O)N[C@@H](CCCC[N+](C)(C)C)C(=O)N[C@@H](CCCC[N+](C)(C)C)C(=O)N[C@@H](CCCC[N+](C)(C)C)C(N)=O [UTBLP 8] (Octanoyl-K(Octanoyl)[Lys(Me3)][Lys(Me3)][Lys(Me3)][Lys(Me3)]-NH2)	0.25
CCCCCCCC(=O)NCCCC[C@H](NC(=O)CCCCCCC)C(=O)N[C@@H](CCCCN(C)C)C(=O)N[C@@H](CCCCN(C)C)C(=O)N[C@@H](CCCCN(C)C)C(=O)N[C@@H](CCCCN(C)C)C(N)=O [UTBLP 7] (Octanoyl-K(Octanoyl)[Lys(Me2)][Lys(Me2)][Lys(Me2)][Lys(Me2)]-NH2)	0.125
CCCCCCCC(=O)N[C@@H](CCCCN)C(=O)NCCCN(CCCNC(=O)[C@H](CCCCN)NC(=O)CCCCCCC)CC(=O)N[C@@H](CCCCN)C(N)=O [UTBLP 1]	0.125
CCCCCCCC(=O)N[C@@H](CCCCN(C)C)C(=O)NCCCN(CCCNC(=O)[C@H](CCCCN(C)C)NC(=O)CCCCCCC)CC(=O)N[C@@H](CCCCN(C)C)C(N)=O [UTBLP 3]	0.5
CCCCCCCC(=O)N[C@@H](CCCCNC)C(=O)NCCCN(CCCNC(=O)[C@H](CCCCNC)NC(=O)CCCCCCC)CC(=O)N[C@@H](CCCCNC)C(N)=O [UTBLP 2]	0.031
CCCCCCCC(=O)NCCCC[C@H](NC(=O)CCCCCCC)C(=O)N[C@@H](CCCCNC)C(=O)N[C@@H](CCCCNC)C(=O)N[C@@H](CCCCNC)C(=O)N[C@@H](CCCCNC)C(N)=O [UTBLP 6] (Octanoyl-K(Octanoyl)[Lys(Me)][Lys(Me)][Lys(Me)][Lys(Me)]-NH2)	0.031
CCCCCCCC(=O)NCCCC[C@H](NC(=O)CCCCCCC)C(=O)N[C@@H](CCCCN)C(=O)N[C@@H](CCCCN)C(=O)N[C@@H](CCCCN)C(=O)N[C@@H](CCCCN)C(N)=O [UTBLP 5] (Octanoyl-K(Octanoyl)KKKK-NH2)	0.031
